protocol_summary: NCI Yeast Anticancer Drug Screen. Data for the rad50 strain (AID 155);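 further: 0% = growth of vehicle-only cultures of the same strain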
recorded_conditions: S. cerevisiae rad50 strain growth inhibition; at 50.0 µM; active compounds read high
About 79,000 compounds went through this panel and 15% of them were active in at least one assay; those are over-represented in the sample as a whole.
readout_name: growth inhibition (%)

INSERT INTO measurements (molecule, readout_name, endpoint_unit, data_value) VALUES
  ('CC(=O)OCCOC(C)=O', 'growth inhibition', '%', 15.2),
  ('COC(=O)c1cc(-c2ccccc2)c2c(=O)n(-c3ccccc3)[nH]c2n1', 'growth inhibition', '%', 13.7),
  ('Cc1ccc(S(=O)(=O)O/N=C2\CCC\C2=C/c2ccccc2)cc1', 'growth inhibition', '%', 7.65),
  ('O=C(COc1c(Cl)c(Cl)c(Cl)c(Cl)c1Cl)Nc1cccc(Cl)c1', 'growth inhibition', '%', 18.9),
  ('CC(=O)Nc1ccc(Cc2ccc3[nH]c(=O)cc(C)c3c2)cc1', 'growth inhibition', '%', -16.3),
  ('CC(=O)OCC(=O)[C@@]1(O)CC[C@H]2[C@@H]3CCC4=CC(=O)CC[C@]4(C)[C@H]3C(=O)C[C@@]21C', 'growth inhibition', '%', -25.1),
  ('O=C(CCCl)Nc1c(Cl)cccc1Cl', 'growth inhibition', '%', 10.2),
  ('CC(=O)Oc1ccc([N+](=O)[O-])cc1', 'growth inhibition', '%', 16.9),
  ('CCCC(C)C1CCC(=O)CC1 (stereo not drawn)', 'growth inhibition', '%', 5.85),
  ('C=CCOC(=O)/C=C\C(=O)OCC=C', 'growth inhibition', '%', -4.6),
  ('CC12CCC(Cl)(CC1O)C2(C)C (stereo not drawn)', 'growth inhibition', '%', 1.9),
  ('Oc1c(Cl)cc(N=Cc2ccc(N(CCCCl)CCCCl)cc2Cl)cc1Cl', 'growth inhibition', '%', 84.6),
  ('Cc1ccc(N2C(=O)CSC2=S)cc1C', 'growth inhibition', '%', -1.7),
  ('CC(NC(=O)C(N)CC(=O)O)NC(=O)C1CCC1 (stereo not drawn)', 'growth inhibition', '%', -39.9),
  ('CC(C)(CO[C@H]1C[C@H]2CC[C@@]1(C)C2(C)C)[N+](=O)[O-]', 'growth inhibition', '%', 25.4),
  ('COC(=O)c1cc2c(cc1CC(Cc1ccc3c(c1)CCCC3)C(=O)OC)CCCC2 (stereo not drawn)', 'growth inhibition', '%', -2.1),
  ('CC(=O)n1c(N)nc2ccccc21', 'growth inhibition', '%', 21.3),
  ('NC(=O)c1cc(Cl)ccc1O', 'growth inhibition', '%', 14.5),
  ('Cc1ccc(S(=O)(=O)C23N=NC(C)(C)C2N=NC3(C)C)cc1 (stereo not drawn)', 'growth inhibition', '%', -10.8),
  ('C=CCNc1nc2c(s1)CCc1cc(OC)c(OC)cc1-2', 'growth inhibition', '%', 30.1),
  ('C/C(=N\NC(=S)Nc1cccc2cccc(S(=O)(=O)O)c12)c1ccccn1', 'growth inhibition', '%', 3.4),
  ('O=C(Oc1ccc2c(c1)CCN2C(=O)c1cc2c(cc1[N+](=O)[O-])OCO2)c1ccc2c(c1)OCO2', 'growth inhibition', '%', 17.4),
  ('CCOC(=O)C(NC(C)=O)(C(=O)OCC)C1CCCCC1=O (stereo not drawn)', 'growth inhibition', '%', -10.8);
